Species on record: Homo sapiens
Protocol: Selectivity ratio of IC50 for human recombinant FAAH to IC50 for human recombinant MAGL
Listed here are compounds together with their documented Ratio IC50.

O=[N+]([O-])c1ccc(SC(=S)N2CCN(Cc3ccccc3)CC2)c([N+](=O)[O-])c1 = 19

Prompt: Which Ratio IC50 is listed for CC(c1ccccc1)N1CCN(C(=S)Sc2ccc([N+](=O)[O-])cc2[N+](=O)[O-])CC1 (stereo not given) ?
Completion: 20

====

Listed here are compounds together with their documented pIC50.
Study system: Monoglyceride lipase (Homo sapiens, UniProt Q99685)
Sequence (Q99685 whole entry): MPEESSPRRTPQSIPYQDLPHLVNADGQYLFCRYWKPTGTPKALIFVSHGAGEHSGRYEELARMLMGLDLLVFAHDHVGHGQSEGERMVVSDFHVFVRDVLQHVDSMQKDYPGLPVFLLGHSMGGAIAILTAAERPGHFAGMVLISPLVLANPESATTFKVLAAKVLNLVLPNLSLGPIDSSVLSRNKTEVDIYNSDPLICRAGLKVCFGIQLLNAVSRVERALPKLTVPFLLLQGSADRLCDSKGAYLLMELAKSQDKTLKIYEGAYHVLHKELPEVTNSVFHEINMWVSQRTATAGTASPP
Protocol: Inhibition of human recombinant MAGL using [3H]-2-OG as substrate after 10 mins by liquid scintillation counter
# pIC50: negative log10 of molar concentration; output just the value

CCN(CC)C(=O)c1ccc(SC(=S)N2CCN(C(c3ccccc3)c3ccccc3)CC2)cc1 = 4.16
O=[N+]([O-])c1ccc(SC(=S)N(Cc2ccccc2)Cc2ccccc2)c([N+](=O)[O-])c1 = 5.30
O=[N+]([O-])c1ccc(SC(=S)N(C2CCCCC2)C2CCCCC2)c([N+](=O)[O-])c1 = 5.70

Prompt: Which pIC50 is listed for O=[N+]([O-])c1ccc(SC(=S)N(c2ccccc2)c2ccccc2)c([N+](=O)[O-])c1 ?
Completion: 5.58

Prompt: Which pIC50 is listed for O=[N+]([O-])c1ccc(SC(=S)N2CCN(Cc3ccc(Br)cc3)CC2)c([N+](=O)[O-])c1 ?
Completion: 6.36

====

Study system: Fatty-acid amide hydrolase 1 (Homo sapiens, UniProt O00519)
Sequence (O00519 whole entry): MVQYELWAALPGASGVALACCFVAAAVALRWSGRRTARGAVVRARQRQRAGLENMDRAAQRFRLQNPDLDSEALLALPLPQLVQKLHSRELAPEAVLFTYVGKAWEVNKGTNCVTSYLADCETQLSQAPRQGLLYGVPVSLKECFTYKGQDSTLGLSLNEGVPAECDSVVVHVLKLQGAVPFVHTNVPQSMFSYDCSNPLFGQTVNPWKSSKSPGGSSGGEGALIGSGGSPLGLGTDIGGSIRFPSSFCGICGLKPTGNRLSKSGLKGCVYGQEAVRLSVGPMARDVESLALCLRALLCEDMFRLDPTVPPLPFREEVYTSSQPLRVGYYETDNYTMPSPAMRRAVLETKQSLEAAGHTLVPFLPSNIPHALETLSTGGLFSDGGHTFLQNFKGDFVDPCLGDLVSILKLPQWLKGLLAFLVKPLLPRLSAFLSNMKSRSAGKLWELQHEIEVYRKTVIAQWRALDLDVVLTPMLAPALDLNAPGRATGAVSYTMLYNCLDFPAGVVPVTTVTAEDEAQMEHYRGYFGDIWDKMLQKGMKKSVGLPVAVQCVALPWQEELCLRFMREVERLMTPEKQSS
Protocol: Inhibition of human recombinant FAAH assessed as conversion of [3H]AEA to [3H]ethanolamine after 10 mins by liquid scintillation counter
pIC50: −log10 of the molar value.
Tick Met if pIC50 is 5 or greater. Tick Not met if pIC50 is less than 5.

As a guide, the following entries are already answered.
O=[N+]([O-])c1ccc(SC(=S)N2CCOCC2)c([N+](=O)[O-])c1 = Not met
O=[N+]([O-])c1ccc(SC(=S)N2CCSCC2)c([N+](=O)[O-])c1 = Not met
O=[N+]([O-])c1ccc(SC(=S)N(C2CCCCC2)C2CCCCC2)c([N+](=O)[O-])c1 = Not met
S=C(Sc1ccc(Cl)cc1)N1CCN(C(c2ccccc2)c2ccccc2)CC1 = Not met
O=[N+]([O-])c1ccc(SC(=S)N2CCN(C/C=C/c3ccccc3)CC2)c([N+](=O)[O-])c1 = Met

Prompt: # bool: pIC50 of O=[N+]([O-])c1ccc(SC(=S)N2CCN(Cc3ccc(-c4ccccc4)cc3)CC2)c([N+](=O)[O-])c1 >= 5
Completion: Met

Prompt: # bool: pIC50 of CN(Cc1ccccc1)C(=S)Sc1ccc([N+](=O)[O-])cc1[N+](=O)[O-] >= 5
Completion: Met

Prompt: # bool: pIC50 of CC(c1ccccc1)N1CCN(C(=S)Sc2ccc([N+](=O)[O-])cc2[N+](=O)[O-])CC1 (centres undefined) >= 5
Completion: Not met

Prompt: # bool: pIC50 of O=[N+]([O-])c1ccc(NC(=S)N2CCN(C(c3ccccc3)c3ccccc3)CC2)cc1 >= 5
Completion: Not met

Prompt: # bool: pIC50 of O=[N+]([O-])c1ccc(SC(=S)N2CCCCC2)c([N+](=O)[O-])c1 >= 5
Completion: Not met

Prompt: # bool: pIC50 of S=C(Sc1ccccc1)N1CCN(C(c2ccccc2)c2ccccc2)CC1 >= 5
Completion: Not met

Prompt: # bool: pIC50 of CCN(Cc1ccccc1)C(=S)Sc1ccc([N+](=O)[O-])cc1[N+](=O)[O-] >= 5
Completion: Met

Prompt: # bool: pIC50 of O=[N+]([O-])c1ccc(SC(=S)N(Cc2ccccc2)Cc2ccccc2)c([N+](=O)[O-])c1 >= 5
Completion: Met
